STUDY TARGET: MAPK10 (human)
ASSAY METHOD TEXT: radiometric filter-binding kinase assay, Kinase HotSpot
CONDITION SET: compound 0.5 µM; ATP 10 µM
// reported residual activity for each item listed

CHEMICAL STRUCTURE: O=C1NC(=O)c2c1c1c3ccccc3n3c1c1c2c2ccccc2n1C1CCC3O1
residual activity: 138%
//
CHEMICAL STRUCTURE: O=c1cc(N2CCOCC2)oc2c1ccc1ccccc12
residual activity: 73.8%
//
CHEMICAL STRUCTURE: Nc1ncnc2[nH]nc(Nc3ccc(F)cc3)c12
residual activity: 100%
//
CHEMICAL STRUCTURE: COc1cc2ncnc(Nc3cccc(Cl)c3)c2cc1OC
residual activity: 89%
//
CHEMICAL STRUCTURE: COc1ccc2c(c[n+](C)c3c4cc5c(cc4ccc23)OCO5)c1OC
residual activity: 100%
//
CHEMICAL STRUCTURE: O=C1NC(=O)C(c2cn(CCCn3ccnc3)c3ccccc23)=C1Nc1ccccc1
residual activity: 100%
//
CHEMICAL STRUCTURE: O=C(Nc1cccc(Nc2nccc(Nc3cccc(C(F)(F)F)c3)n2)c1)C1CC1
residual activity: 99%
//
CHEMICAL STRUCTURE: CCN(CC)CCNC(=O)c1c(C)[nH]c(/C=C2\C(=O)Nc3ccc(Cl)cc32)c1C
residual activity: 104%
//
CHEMICAL STRUCTURE: CC(C)N(CCC(=O)c1ccc2ccccc2c1)Cc1ccccc1
residual activity: 91.1%
//
CHEMICAL STRUCTURE: CCN(CC)C(=O)c1ccc(Nc2nc(OCC3CCCCC3)c3nc[nH]c3n2)cc1
residual activity: 108%
//
CHEMICAL STRUCTURE: Cc1ccc(NC2=CC(=O)c3sc(C)nc3C2=O)cc1
residual activity: 105%
//
CHEMICAL STRUCTURE: c1ccc(-c2n[nH]c3c2oc2ccccc23)cc1
residual activity: 93.4%
//
CHEMICAL STRUCTURE: Nc1ncnc2c1c(-c1ccc(Oc3ccccc3)cc1)cn2C1CCCC1
residual activity: 87.4%
//
CHEMICAL STRUCTURE: O=S(=O)(c1cccc2cnccc12)N1CCCNCC1
residual activity: 85.3%
//
CHEMICAL STRUCTURE: c1ccc(-c2n[nH]cc2-c2ccnc3ccccc23)nc1
residual activity: 92.9%
//
CHEMICAL STRUCTURE: Cc1ccc(S(=O)(=O)/C=C/C#N)cc1
residual activity: 107%
//
CHEMICAL STRUCTURE: CCC(=O)Nc1ccc2ncnc(Nc3cccc(Br)c3)c2c1
residual activity: 96.5%
//
CHEMICAL STRUCTURE: CNC(=O)c1cc(Oc2ccc(NC(=O)Nc3ccc(Cl)c(C(F)(F)F)c3)cc2)ccn1
residual activity: 94.2%
//
CHEMICAL STRUCTURE: Cc1[nH]c(/C=C2\C(=O)Nc3ccc(S(=O)(=O)N(C)c4cccc(Cl)c4)cc32)c(C)c1C(=O)N1CCN(C)CC1
residual activity: 99%
//
CHEMICAL STRUCTURE: CCCC(=O)Oc1ccc2[nH]c(C(=O)c3cc4ccccc4[nH]3)cc2c1
residual activity: 100%
//
CHEMICAL STRUCTURE: Nc1cccc(-c2cc3c(Oc4cccc(O)c4)ncnc3[nH]2)c1
residual activity: 89.4%
//
CHEMICAL STRUCTURE: N#CC(C#N)=C(N)/C(C#N)=C/c1ccc(O)cc1
residual activity: 98.8%
//
CHEMICAL STRUCTURE: CC[n+]1c(/C=C/N(C)c2ccccc2)n(-c2ccccc2)c2ccc(-c3nc4ccccc4s3)cc21
residual activity: 92.7%

====

// reported residual activity for each item listed
STUDY TARGET: UniProt P42679
Sequence (P42679 whole entry, looked up): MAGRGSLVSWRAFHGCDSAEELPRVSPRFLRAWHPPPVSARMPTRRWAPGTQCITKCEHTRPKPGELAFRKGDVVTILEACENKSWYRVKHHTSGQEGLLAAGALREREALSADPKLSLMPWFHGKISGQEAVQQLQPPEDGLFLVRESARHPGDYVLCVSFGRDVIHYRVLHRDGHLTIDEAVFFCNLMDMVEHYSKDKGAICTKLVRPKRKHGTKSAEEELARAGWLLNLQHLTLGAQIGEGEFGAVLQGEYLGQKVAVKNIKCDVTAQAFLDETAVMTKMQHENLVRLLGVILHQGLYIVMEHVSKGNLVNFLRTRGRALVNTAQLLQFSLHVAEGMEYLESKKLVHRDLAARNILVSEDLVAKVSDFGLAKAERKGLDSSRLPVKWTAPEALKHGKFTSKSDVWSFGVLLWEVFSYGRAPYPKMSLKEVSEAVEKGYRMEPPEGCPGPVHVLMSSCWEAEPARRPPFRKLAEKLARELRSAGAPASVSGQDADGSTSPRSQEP
ASSAY METHOD TEXT: radiometric filter-binding kinase assay, Kinase HotSpot
CONDITION SET: compound 0.5 µM; ATP 10 µM

CHEMICAL STRUCTURE: CNc1cc2c(Nc3cccc(Br)c3)ncnc2cn1
STUDY TARGET: UniProt P42679
UNIT ABBREV: %
residual activity: 88

CHEMICAL STRUCTURE: N#CC(C#N)=C(N)/C(C#N)=C/c1ccc(O)cc1
STUDY TARGET: UniProt P42679
UNIT ABBREV: %
residual activity: 92.5

CHEMICAL STRUCTURE: CCN(CC)CCNC(=O)c1c(C)[nH]c(/C=C2\C(=O)Nc3ccc(Cl)cc32)c1C
STUDY TARGET: UniProt P42679
UNIT ABBREV: %
residual activity: 96.8

CHEMICAL STRUCTURE: O=C1NC(=O)C(c2cn(CCCn3ccnc3)c3ccccc23)=C1Nc1ccccc1
STUDY TARGET: UniProt P42679
UNIT ABBREV: %
residual activity: 89.8

CHEMICAL STRUCTURE: CC[n+]1c(/C=C/N(C)c2ccccc2)n(-c2ccccc2)c2ccc(-c3nc4ccccc4s3)cc21
STUDY TARGET: UniProt P42679
UNIT ABBREV: %
residual activity: 96.4

CHEMICAL STRUCTURE: Cc1ccc(S(=O)(=O)/C=C/C#N)cc1
STUDY TARGET: UniProt P42679
UNIT ABBREV: %
residual activity: 101

CHEMICAL STRUCTURE: c1ccc(-c2n[nH]c3c2oc2ccccc23)cc1
STUDY TARGET: UniProt P42679
UNIT ABBREV: %
residual activity: 94

CHEMICAL STRUCTURE: CCN(CC)CCNC(=O)c1c(C)[nH]c(/C=C2\C(=O)Nc3ccc(F)cc32)c1C
STUDY TARGET: UniProt P42679
UNIT ABBREV: %
residual activity: 88.8

CHEMICAL STRUCTURE: COc1ccc(COc2ccc(Cc3cnc(N)nc3N)cc2OC)cc1
STUDY TARGET: UniProt P42679
UNIT ABBREV: %
residual activity: 94.8

CHEMICAL STRUCTURE: Cc1[nH]c(/C=C2\C(=O)Nc3ccc(S(=O)(=O)N(C)c4cccc(Cl)c4)cc32)c(C)c1C(=O)N1CCN(C)CC1
STUDY TARGET: UniProt P42679
UNIT ABBREV: %
residual activity: 100

====

STUDY TARGET: MELK (human)
ASSAY METHOD TEXT: radiometric filter-binding kinase assay, Kinase HotSpot
CONDITION SET: compound 0.5 µM; ATP 10 µM
// false (0) strictly below 90% in residual activity; true (1) otherwise

CHEMICAL STRUCTURE: CCCC(=O)Oc1ccc2[nH]c(C(=O)c3cc4ccccc4[nH]3)cc2c1
CLASS: true (1)
--
CHEMICAL STRUCTURE: O=C1Nc2ccc(Cl)cc2/C1=C/c1cc(Cl)c(O)c(Cl)c1
CLASS: false (0)
--
CHEMICAL STRUCTURE: Nc1ccc2ncnc(NCCc3ccc(Oc4ccccc4)cc3)c2c1
CLASS: true (1)
--
CHEMICAL STRUCTURE: COc1cc2ncnc(Nc3cccc(Cl)c3)c2cc1OC
CLASS: false (0)
--
CHEMICAL STRUCTURE: O=C1NC(=O)/C(=C/c2ccc3c(c2)OC(F)(F)O3)S1
CLASS: true (1)
--
CHEMICAL STRUCTURE: O=c1cc(N2CCOCC2)oc2c1ccc1ccccc12
CLASS: true (1)
--
CHEMICAL STRUCTURE: CCC(=O)Nc1ccc2ncnc(Nc3cccc(Br)c3)c2c1
CLASS: true (1)
--
CHEMICAL STRUCTURE: CC(=O)c1ccc(N2CCOCC2)cc1O
CLASS: true (1)
--
CHEMICAL STRUCTURE: N#CC(C#N)=C(N)/C(C#N)=C/c1ccc(O)cc1
CLASS: true (1)
--
CHEMICAL STRUCTURE: CC(C)N(CCC(=O)c1ccc2ccccc2c1)Cc1ccccc1
CLASS: true (1)

====

STUDY TARGET: PLK1 (human)
ASSAY METHOD TEXT: radiometric filter-binding kinase assay, Kinase HotSpot
CONDITION SET: compound 0.5 µM; ATP 10 µM
// reported residual activity for each item listed
MEASUREMENT NAME: residual activity (%)

COMPOUND: Cc1ccc(S(=O)(=O)/C=C/C#N)cc1
UNIT ABBREV: %
RECORDED RESULT: 110
--
COMPOUND: O=C1NC(=O)C(c2cn(CCCn3ccnc3)c3ccccc23)=C1Nc1ccccc1
UNIT ABBREV: %
RECORDED RESULT: 99.5
--
COMPOUND: CC(=O)c1ccc(N2CCOCC2)cc1O
UNIT ABBREV: %
RECORDED RESULT: 94.3
--
COMPOUND: N#C/C(=C(/N)Sc1ccc(N)cc1)c1ccccc1C(F)(F)F
UNIT ABBREV: %
RECORDED RESULT: 92.6
--
COMPOUND: CC[n+]1c(/C=C/N(C)c2ccccc2)n(-c2ccccc2)c2ccc(-c3nc4ccccc4s3)cc21
UNIT ABBREV: %
RECORDED RESULT: 110
--
COMPOUND: Nc1cccc(-c2cc3c(Oc4cccc(O)c4)ncnc3[nH]2)c1
UNIT ABBREV: %
RECORDED RESULT: 104
--
COMPOUND: Nc1ccc2ncnc(NCCc3ccc(Oc4ccccc4)cc3)c2c1
UNIT ABBREV: %
RECORDED RESULT: 91.1
--
COMPOUND: O=C1NC(=O)/C(=C/c2ccc3c(c2)OC(F)(F)O3)S1
UNIT ABBREV: %
RECORDED RESULT: 92.9
--
COMPOUND: CCOC(=O)c1c(C)[nH]c(/C=C2\C(=O)Nc3ccccc32)c1C
UNIT ABBREV: %
RECORDED RESULT: 107
--
COMPOUND: COc1ccc2c(c[n+](C)c3c4cc5c(cc4ccc23)OCO5)c1OC
UNIT ABBREV: %
RECORDED RESULT: 93.6
--
COMPOUND: CC(C)N(CCC(=O)c1ccc2ccccc2c1)Cc1ccccc1
UNIT ABBREV: %
RECORDED RESULT: 97.8
--
COMPOUND: CCC(=O)Nc1ccc2ncnc(Nc3cccc(Br)c3)c2c1
UNIT ABBREV: %
RECORDED RESULT: 95.3
--
COMPOUND: O=C(Nc1cccc(Nc2nccc(Nc3cccc(C(F)(F)F)c3)n2)c1)C1CC1
UNIT ABBREV: %
RECORDED RESULT: 91.7
--
COMPOUND: Nc1ncnc2[nH]nc(Nc3ccc(F)cc3)c12
UNIT ABBREV: %
RECORDED RESULT: 99.9
--
COMPOUND: c1ccc(-c2n[nH]cc2-c2ccnc3ccccc23)nc1
UNIT ABBREV: %
RECORDED RESULT: 102
--
COMPOUND: Nc1ncnc2c1c(-c1ccc(Oc3ccccc3)cc1)cn2C1CCCC1
UNIT ABBREV: %
RECORDED RESULT: 100
--
COMPOUND: O=c1cc(N2CCOCC2)oc2c1ccc1ccccc12
UNIT ABBREV: %
RECORDED RESULT: 68.4
--
COMPOUND: CCN(CC)CCNC(=O)c1c(C)[nH]c(/C=C2\C(=O)Nc3ccc(F)cc32)c1C
UNIT ABBREV: %
RECORDED RESULT: 96.4
--
COMPOUND: Oc1cccc(-c2nc(N3CCOCC3)c3oc4ncccc4c3n2)c1
UNIT ABBREV: %
RECORDED RESULT: 97.9
--
COMPOUND: O=C1Nc2ccc(Cl)cc2/C1=C/c1cc(Cl)c(O)c(Cl)c1
UNIT ABBREV: %
RECORDED RESULT: 99.8
--
COMPOUND: CCCC(=O)Oc1ccc2[nH]c(C(=O)c3cc4ccccc4[nH]3)cc2c1
UNIT ABBREV: %
RECORDED RESULT: 101
--
COMPOUND: c1ccc(-c2n[nH]c3c2oc2ccccc23)cc1
UNIT ABBREV: %
RECORDED RESULT: 106
--
COMPOUND: N#CC(C#N)=C(N)/C(C#N)=C/c1ccc(O)cc1
UNIT ABBREV: %
RECORDED RESULT: 60.8
--
COMPOUND: Cc1ccc(NC2=CC(=O)c3sc(C)nc3C2=O)cc1
UNIT ABBREV: %
RECORDED RESULT: 86.8
--
COMPOUND: O=C1NC(=O)c2c1c1c3ccccc3n3c1c1c2c2ccccc2n1C1CCC3O1
UNIT ABBREV: %
RECORDED RESULT: 50.2
--
COMPOUND: COc1cc2ncnc(Nc3cccc(Cl)c3)c2cc1OC
UNIT ABBREV: %
RECORDED RESULT: 105
--
COMPOUND: Cc1ccc(Nc2nccc(N(C)c3ccc4c(C)n(C)nc4c3)n2)cc1S(N)(=O)=O
UNIT ABBREV: %
RECORDED RESULT: 99.5
--
COMPOUND: CCN(CC)C(=O)c1ccc(Nc2nc(OCC3CCCCC3)c3nc[nH]c3n2)cc1
UNIT ABBREV: %
RECORDED RESULT: 91.4
--
COMPOUND: CCN(CC)CCNC(=O)c1c(C)[nH]c(/C=C2\C(=O)Nc3ccc(Cl)cc32)c1C
UNIT ABBREV: %
RECORDED RESULT: 105
--
COMPOUND: CNc1cc2c(Nc3cccc(Br)c3)ncnc2cn1
UNIT ABBREV: %
RECORDED RESULT: 93.5
--
COMPOUND: COc1ccc(COc2ccc(Cc3cnc(N)nc3N)cc2OC)cc1
UNIT ABBREV: %
RECORDED RESULT: 97.1
--
COMPOUND: CO[C@H]1CC2CC[C@@H](C)[C@@](O)(O2)C(=O)C(=O)N2CCCC[C@H]2C(=O)OC([C@H](C)C[C@@H]2CC[C@@H](O)[C@H](OC)C2)CC(=O)[C@H](C)/C=C(\C)[C@@H](O)[C@@H](OC)C(=O)[C@H](C)C[C@H](C)/C=C/C=C/C=C/1C (stereo partly specified)
UNIT ABBREV: %
RECORDED RESULT: 97.8
--
COMPOUND: O=S(=O)(c1cccc2cnccc12)N1CCCNCC1
UNIT ABBREV: %
RECORDED RESULT: 103
--
COMPOUND: CC#CC(=O)Nc1cc2c(Nc3ccc(F)c(Cl)c3)ncnc2cn1
UNIT ABBREV: %
RECORDED RESULT: 99.3
--
COMPOUND: Cc1[nH]c(/C=C2\C(=O)Nc3ccc(S(=O)(=O)N(C)c4cccc(Cl)c4)cc32)c(C)c1C(=O)N1CCN(C)CC1
UNIT ABBREV: %
RECORDED RESULT: 96.9
--
COMPOUND: CNC(=O)c1cc(Oc2ccc(NC(=O)Nc3ccc(Cl)c(C(F)(F)F)c3)cc2)ccn1
UNIT ABBREV: %
RECORDED RESULT: 98.1
